Target: ERα_LBD (GST) (Homo sapiens (Human), UniProt P03372)
Sequence (P03372 311-547): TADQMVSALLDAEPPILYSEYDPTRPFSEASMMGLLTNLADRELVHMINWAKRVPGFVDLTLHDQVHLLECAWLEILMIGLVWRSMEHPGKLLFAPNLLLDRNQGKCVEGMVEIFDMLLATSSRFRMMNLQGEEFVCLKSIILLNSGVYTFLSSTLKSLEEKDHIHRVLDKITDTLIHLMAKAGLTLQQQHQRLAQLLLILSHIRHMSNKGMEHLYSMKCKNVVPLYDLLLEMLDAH
reported_metric: IC50

compound | tgt | IC50
O=C1CC[C@H](N2Cc3c(ccc4c3OC[C@H]3CN(CC5CC6(CCN(c7ccc([C@@H]8c9ccc(O)cc9CC[C@@H]8c8ccccc8)cn7)CC6)C5)CCN43)C2=O)C(=O)N1 (single isomer, unassigned) | ERα_LBD (GST) (Homo sapiens (Human), UniProt P03372) | < 0.01 µM

Req: Recall and state the measured IC50 for `COc1cc(N2CCC3(CC2)C[C@H](CN2CCN4c5cc6c(cc5OC[C@@H]4C2)C(=O)N([C@H]2CCC(=O)NC2=O)C6)CO3)c(F)cc1[C@@H]1c2ccc(O)cc2CC[C@@H]1c1ccccc1` .
Resp: < 0.01 µM

---

Target: ER in MCF-7 cells (Homo sapiens (Human))
Sequence (P03372 whole entry): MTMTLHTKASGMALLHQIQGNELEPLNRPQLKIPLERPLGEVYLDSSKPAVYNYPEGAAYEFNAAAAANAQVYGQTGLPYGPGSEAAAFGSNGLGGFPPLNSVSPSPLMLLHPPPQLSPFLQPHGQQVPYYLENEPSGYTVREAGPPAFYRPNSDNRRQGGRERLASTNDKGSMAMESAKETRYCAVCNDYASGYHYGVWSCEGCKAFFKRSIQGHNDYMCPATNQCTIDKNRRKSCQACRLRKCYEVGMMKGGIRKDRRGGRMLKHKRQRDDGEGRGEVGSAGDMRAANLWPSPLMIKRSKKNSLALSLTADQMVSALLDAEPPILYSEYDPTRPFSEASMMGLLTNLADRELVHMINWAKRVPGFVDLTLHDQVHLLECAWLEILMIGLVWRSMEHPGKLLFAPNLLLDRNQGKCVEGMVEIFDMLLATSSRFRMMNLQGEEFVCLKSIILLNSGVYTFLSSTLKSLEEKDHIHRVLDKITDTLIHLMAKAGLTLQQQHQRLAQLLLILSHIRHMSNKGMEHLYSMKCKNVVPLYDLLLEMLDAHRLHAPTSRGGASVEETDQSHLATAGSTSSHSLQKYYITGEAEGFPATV
Experiment: In-cell Western (ICW) ER degradation assay in MCF-7 cells
Assay type: cell-based
Settings: MCF-7, ER degradation, 16 hrs treatment; read-out: MCF7 DC50
Source text: In-cell Western (ICW) assays in MCF-7 and T47D cell lines. Day 3: After 16 hrs of compounds treatment, cells were fixed by 4% PFA and permeabilized with elution buffer (0.1% Triton X-100 in 1% PBS Solution). Subsequently, cells were blocked with Intercept (PBS) Blocking Buffer (Li-COR, Odyssey Blocking Buffer), and were stained with ER (1:500, Cell signaling) primary antibody for overnight at cold room. […]
reported_metric: DC50

molecule | DC50
COc1cc(N2CCC3(CC2)CC(CN2CCN4c5ccc6c(c5OC[C@H]4C2)CN([C@H]2CCC(=O)NC2=O)C6=O)C3)c(F)cc1[C@@H]1c2ccc(O)cc2CC[C@@H]1c1ccccc1 [Compound A99] | < 1 nM
O=C1CC[C@H](N2Cc3cc4c(cc3C2=O)OC[C@H]2CN(C[C@H]3COC5(CCN(c6ccc([C@@H]7c8ccc(O)cc8CC[C@@H]7c7ccccc7)cc6)CC5)C3)CCN42)C(=O)N1 (single isomer, unassigned) [Compound A17] | 1 to 10 nM
O=C1CC[C@H](N2Cc3cc4c(cc3C2=O)OCC42CCN(C[C@@H]3COC4(CCN(c5ccc([C@@H]6c7ccc(O)cc7CC[C@@H]6c6ccccc6)cc5)CC4)C3)CC2)C(=O)N1 [Compound A26] | 10 to 100 nM
COC1(CCN2CCC3(CC2)COc2c3ccc3c2CN([C@H]2CCC(=O)NC2=O)C3=O)CCN(c2ccc([C@@H]3c4ccc(O)cc4CC[C@@H]3c3ccccc3)cc2)CC1 [Compound A193] | < 1 nM
O=C1CC[C@H](N2Cc3c(ccc4c3OCC43CCN(CCCOC4CN(c5ccc([C@@H]6c7ccc(O)cc7CC[C@@H]6c6ccccc6)cc5)C4)CC3)C2=O)C(=O)N1 [Compound A183] | < 1 nM

Req: Give DC50 for O=C1CC[C@H](N2Cc3cc4c(cc3C2=O)OCC42CCN(CC3CC4(CCN(c5ccc([C@@H]6c7ccc(O)cc7CC[C@@H]6c6ccccc6)cn5)CC4)C3)CC2)C(=O)N1 [Compound A126]
Resp: < 1 nM

Req: Retrieve DC50 measured for O=C1CC[C@H](N2Cc3c(ccc4c3OCC43CCN(C4CN(CCOc5ccc([C@@H]6c7ccc(O)cc7CC[C@@H]6c6ccccc6)cc5)C4)CC3)C2=O)C(=O)N1 [Compound A80] and print it.
Resp: < 1 nM

Req: Read off the recorded DC50 for COc1cc(N2CCC(CN3CCC4(CC3)COc3c4ccc4c3CN([C@H]3CCC(=O)NC3=O)C4=O)CC2)c(F)cc1[C@@H]1c2ccc(O)cc2CC[C@@H]1c1ccccc1 [Compound A93]
Resp: < 1 nM

Req: Name the recorded DC50 of the item O=C1CC[C@H](N2Cc3c(ccc4c3OC[C@H]3CN(CC5COC6(C5)CN(c5ccc([C@H]7c8ccc(O)cc8CC[C@H]7c7ccccc7)cc5)C6)CCN43)C2=O)C(=O)N1 (single isomer, unassigned) [Compound A41] in your answer.
Resp: < 1 nM

Req: Write down DC50 measured for item O=C1CC[C@H](N2Cc3cc4c(cc3C2=O)OC[C@@H]2CN(C[C@@H]3COC5(C3)CN(c3ccc([C@@H]6c7ccc(O)cc7CC[C@@H]6c6ccccc6)cc3)C5)CCN42)C(=O)N1 [Compound A73]
Resp: < 1 nM
